Source: patent US10676468B2

Tested on: Hedgehog Signaling Pathway
Assay: Gli-Luc reporter gene cell assay in C3H10T1/2/Gli-Luc cells stimulated with Shh
Format: cell-based, mouse
Details: Mus musculus, C3H 10T1/2, 24 h, 30 nM Shh, luciferase activity (RLU), read-out: IC50 values of compounds that inhibit Hh pathway
Binary call on IC50 with cut-off 0.8 nM: strictly below means satisfied, and equality or higher means not satisfied.

API: query returns whether the molecule falls strictly under 0.8 nM in IC50. Query: CCN1[C@H](C)CN(c2ccc(C(=O)Nc3ccc(Cl)c(-c4ncc(-c5cccs5)[nH]4)c3)c(Cl)c2)C[C@@H]1C
satisfied

Proceed to Cc1cc(N2C[C@@H](C)N(C)[C@@H](C)C2)ccc1C(=O)Nc1ccc(Cl)c(-c2ncc(C3CCC3)[nH]2)c1
not satisfied

Proceed to C[C@@H]1CN(c2ccc(C(=O)Nc3cnc(Cl)c(-c4nc5ccccc5[nH]4)c3)c(Cl)c2)C[C@H](C)N1C
not satisfied

Proceed to Cc1c(C(=O)Nc2ccc(Cl)c(-c3nc4ccccc4[nH]3)c2)ccc(N2C[C@@H](C)N(C)[C@@H](C)C2)c1F
satisfied

Proceed to Cc1cc(-c2ccc(C(F)(F)F)cc2)ccc1C(=O)Nc1cnc(Cl)c(-c2nc3ccccc3[nH]2)c1
not satisfied
